Values compiled from patent US20220016251A1.

# ASSAY_DETAILS: in vivo
# RUN_CONDITIONS: SD, rat, in vivo, po
VALUE_TYPE: AUC(0-t) (ng·h/mL)
# value in ng·h/mL; strip the unit string

Please fill in: AUC(0-t) reported for CC(=O)O[C@@]12CO[C@@H]1C[C@H](O)[C@@]1(C)C(=O)[C@H](O)C3=C(C)[C@@H](OC(=O)[C@H](O)[C@@H](NC(=O)OC(C)(C)C)c4ccccc4)C[C@@](O)([C@@H](OC(=O)c4ccccc4)[C@H]21)C3(C)C [DTX Solution, docetaxel] = 168
